# test.method.notes: Plasma and brain levels after intravenous administration
# Assay type: in vivo
# measurement.conditions: mouse, brain; adult male ICR mice, 80 min after intravenous KS-133 1 nmol/g; n = 3, mean ± S.E.M.; unpublished data
Where a SMILES comes first, the peptide text is derived from it. Bridges are numbered along the chain shown (N, C = ends).
measurement.label: tissue level at time molar at 80 min (nmol/g)
Answers are plain numbers, in nmol/g.

The measured tissue level at time molar at 80 min associated with CC[C@H](C)[C@H](NC(=O)[C@H](CC(C)C)NC(=O)[C@@H]1CC(=O)NCCCC[C@@H]2NC(=O)[C@@H]3CCCN3C(=O)[C@H](CC(C)C)NC(=O)[C@H](Cc3ccc(O)cc3)NC(=O)[C@@H]3CCCN3C(=O)[C@@H]3CCCN3C(=O)[C@@H](NC(C)=O)CSSC[C@H](NC(=O)[C@H](CC(C)C)NC(=O)[C@H](Cc3ccc(O)cc3)NC2=O)C(=O)N1)C(N)=O [KS-133] (Ac-CPPYLPKYLCDLI-NH2; disulfide 1-10; lactam 7-11) reads 0.035
